Let's look at some compounds and their measured Absorption λmax.
# assay text: Luminescent data (absorption, emission, quantum yield, brightness) in solvents
# Assay type: physicochemical
# experimental setup: Ethyl acetate (ϵr 6.0, viscosity 0.45 cP)
All answers are understood in nm, so give the number only.

Look over these answered cases.
CCCCCOc1cc2c3cc(OCCCCC)c(OCCCCC)cc3c3c(cc(OCCCCC)c4oc(-c5ccc6cc7ccccc7cc6c5)nc43)c2cc1OCCCCC    272
CCCCCOc1cc2c3cc(OCCCCC)c(OCCCCC)cc3c3c(cc(OCCCCC)c4oc(-c5ccccc5)nc43)c2cc1OCCCCC    270

# context switch: different compound, same Absorption λmax
Request: Give its Absorption λmax value. Item: CCCCCOc1cc2c3cc(OCCCCC)c(OCCCCC)cc3c3c(cc(OCCCCC)c4oc(-c5ccc6ccccc6c5)nc43)c2cc1OCCCCC
Response: 272

====

Let's look at some compounds and their measured Absorption λmax.
# assay text: Luminescent data (absorption, emission, quantum yield, brightness) in solvents
# Type: physicochemical
# experimental setup: Octan-1-ol (ϵr 10.3, viscosity 7.36 cP)
All answers are understood in nm, so give the number only.

Look over these answered cases.
CCCCCOc1cc2c3cc(OCCCCC)c(OCCCCC)cc3c3c(cc(OCCCCC)c4oc(-c5ccc6cc7ccccc7cc6c5)nc43)c2cc1OCCCCC    270
CCCCCOc1cc2c3cc(OCCCCC)c(OCCCCC)cc3c3c(cc(OCCCCC)c4oc(-c5ccc6ccccc6c5)nc43)c2cc1OCCCCC    272
CCCCCOc1cc2c3cc(OCCCCC)c(OCCCCC)cc3c3c(cc(OCCCCC)c4oc(-c5c6ccccc6cc6ccccc56)nc43)c2cc1OCCCCC    255
CCCCCOc1cc2c3cc(OCCCCC)c(OCCCCC)cc3c3c(cc(OCCCCC)c4oc(-c5cccc6ccccc56)nc43)c2cc1OCCCCC    275
CCCCCOc1cc2c3cc(OCCCCC)c(OCCCCC)cc3c3c(cc(OCCCCC)c4oc(-c5ccccc5)nc43)c2cc1OCCCCC    271

# context switch: different compound, same Absorption λmax
Request: Give its Absorption λmax value. Item: CCCCCOc1cc2c3cc(OCCCCC)c(OCCCCC)cc3c3c(cc(OCCCCC)c4oc(CCCC)nc43)c2cc1OCCCCC
Response: 281

====

# assay text: Luminescence data for pairs of compounds absorbing at the same wavelength and emitting at different wavelengths
# Format: physicochemical
# Source text: Referring now to Tables 2 to 4, there is provided luminescence data for pairs of compounds which are capable of absorbing at the same wavelength and emitting at different wavelengths.
Let's look at some compounds and their measured pSS (nm).
All answers are understood in nm, so give the number only.

Look over these answered cases.
CCCCCOc1cc2c3cc(OCCCCC)c(OCCCCC)cc3c3c(cc(OCCCCC)c4oc(-c5ccc(OC)cc5)nc43)c2cc1OCCCCC [Compound 45]    174
CCCCCOc1cc2c3cc(OCCCCC)c(OCCCCC)cc3c3c(cc(OCCCCC)c4oc(-c5ccc6ccccc6c5)nc43)c2cc1OCCCCC [Compound 3]    222
CCCCCOc1cc2c3cc(OCCCCC)c(OCCCCC)cc3c3c(cc(OCCCCC)c4oc(-c5ccc(N(C)C)cc5)nc43)c2cc1OCCCCC [Compound 22]    150

# context switch: different compound, same pSS (nm)
Request: Give its pSS (nm) value. Item: CCCCCOc1cc2c3cc(OCCCCC)c(OCCCCC)cc3c3c(cc(OCCCCC)c4oc(-c5ccc(C#N)cc5)nc43)c2cc1OCCCCC [Compound 12]
Response: 286
